- Assay Target: thrombin receptor (Homo sapiens)
- Construct: In this assay, washed human platelets are prepared by the method of Baenzinger; endogenous in cells
- Sequence (P25116 22-425): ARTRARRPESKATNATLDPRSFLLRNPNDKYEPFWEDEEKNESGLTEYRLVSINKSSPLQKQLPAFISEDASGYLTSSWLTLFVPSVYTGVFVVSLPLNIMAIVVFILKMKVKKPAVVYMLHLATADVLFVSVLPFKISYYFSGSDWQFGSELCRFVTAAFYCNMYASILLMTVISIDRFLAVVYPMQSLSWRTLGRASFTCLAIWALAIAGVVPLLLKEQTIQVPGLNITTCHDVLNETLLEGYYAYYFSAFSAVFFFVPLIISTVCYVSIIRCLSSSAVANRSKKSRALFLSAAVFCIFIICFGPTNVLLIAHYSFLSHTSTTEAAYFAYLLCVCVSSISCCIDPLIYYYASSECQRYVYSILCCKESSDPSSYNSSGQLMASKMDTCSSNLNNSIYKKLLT
- Measurement Description: Platelet activation/aggregation assays in the presence of thrombin, antagonist peptides
- Measurement Parameters: read-out: IC50 (50% inhibition of activation or aggregation)
Square brackets hold non-standard residues; d marks the D form. Peptide text beside a SMILES is read from it. * marks the point of attachment. Cha = N[C@@H](CC1CCCCC1)C(=O)O; X1 = O=C(c1ccccc1S)*; Mpa = O=C(O)CCS
Here the recorded pIC50 is given for each entry.
By convention, pIC50 is the negative base-10 log of a molar concentration.

These solved cases illustrate the format of a correct answer.
{"Molecule": "N=C(N)NCCC[C@H](NC(=O)[C@H](CC1CCCCC1)NC(=O)[C@H](CC1CCCCC1)NC(=O)[C@H](Cc1ccccc1)NC(=O)CCS)C(=O)N[C@@H](CC(N)=O)C(=O)N1CCC[C@H]1C(=O)N[C@@H](CC(N)=O)C(=O)N[C@@H](CC(=O)O)C(N)=O [Mpr-F(Cha) (Cha)RNPND-NH2] ([Mpa]F[Cha][Cha]RNPND-NH2)", "Numeric Value": 4.30}
{"Molecule": "C[C@H](NC(=O)[C@@H]1CCCN1C(=O)[C@H](CC(N)=O)NC(=O)[C@H](CCCNC(=N)N)NC(=O)[C@H](CC1CCCCC1)NC(=O)[C@H](CC1CCCCC1)NC(=O)[C@H](Cc1ccccc1)NC(=O)CCS)C(=O)N[C@@H](CC(=O)O)C(=O)N[C@@H](CCCCN)C(N)=O [Mpr-F(Cha) (Cha)RNPADK-NH2] ([Mpa]F[Cha][Cha]RNPADK-NH2)", "Numeric Value": 4.12}
{"Molecule": "C[C@H](NC(=O)[C@H](CC(=O)O)NC(=O)[C@H](CC(N)=O)NC(=O)[C@@H]1CCCN1C(=O)[C@H](CC(N)=O)NC(=O)[C@H](CCCNC(=N)N)NC(=O)[C@H](CC1CCCCC1)NC(=O)[C@H](CC1CCCCC1)NC(=O)[C@H](Cc1ccccc1)NC(=O)CCS)C(N)=O [Mpr-F(Cha) (Cha)RNPNDA-NH2] ([Mpa]F[Cha][Cha]RNPNDA-NH2)", "Numeric Value": 4.30}

Asked: Determine its reported pIC50: N=C(N)NCCC[C@H](NC(=O)[C@H](CC1CCCCC1)NC(=O)[C@H](CC1CCCCC1)NC(=O)[C@H](Cc1ccccc1)NC(=O)CCS)C(=O)N[C@@H](CC(N)=O)C(=O)N1CCC[C@H]1C(=O)N[C@@H](CC(N)=O)C(=O)N[C@@H](CC(=O)O)C(=O)N[C@@H](CCCCN)C(=O)N[C@@H](Cc1ccc(O)cc1)C(=O)O [Mpr-F(Cha) (Cha)RNPNDKY] ([Mpa]F[Cha][Cha]RNPNDKY-OH)
Given back: 4.40

Asked: Determine its reported pIC50: CC(C)C[C@H](NC(=O)[C@H](Cc1ccccc1)NC(=O)CCS)C(=O)N[C@@H](CC(C)C)C(=O)N[C@@H](CCCNC(=N)N)C(=O)N[C@@H](CC(N)=O)C(=O)N1CCC[C@H]1C(=O)N[C@@H](CC(N)=O)C(=O)N[C@@H](CC(=O)O)C(=O)N[C@@H](CCCCN)C(=O)O ([Mpa]FLLRNPNDK-OH)
Given back: 4.10

Asked: Determine its reported pIC50: C[C@H](NC(=O)[C@H](CC(N)=O)NC(=O)[C@H](CCCNC(=N)N)NC(=O)[C@H](CC1CCCCC1)NC(=O)[C@H](CC1CCCCC1)NC(=O)[C@H](Cc1ccccc1)NC(=O)CCS)C(=O)N[C@@H](CC(N)=O)C(=O)N[C@@H](CC(=O)O)C(=O)N[C@@H](CCCCN)C(N)=O [Mpr-F(Cha) (Cha)RNANDK-NH2] ([Mpa]F[Cha][Cha]RNANDK-NH2)
Given back: 4.12

Asked: Determine its reported pIC50: N=C(N)NCCC[C@H](NC(=O)[C@H](CC1CCCCC1)NC(=O)[C@H](CC1CCCCC1)NC(=O)[C@H](Cc1ccccc1)NC(=O)c1ccccc1S)C(=O)N[C@@H](CCCCN)C(=O)N1CCC[C@H]1C(=O)N[C@@H](CC(N)=O)C(=O)N[C@@H](CC(=O)O)C(=O)N[C@@H](CCCCN)C(N)=O [(2-Mba)-F(Cha)(Cha)RKPNDK-NH2] (X1-F[Cha][Cha]RKPNDK-NH2)
Given back: 4.30
